# System: PPARg:RXRa 90nM:30nM, anti-RXR (NR concentration 90 nM, RXRa partner concentration 30 nM)
# test_summary: PBM binding z-score (relative to random genomic background probes); higher = stronger binding; sequences stand for … in GC…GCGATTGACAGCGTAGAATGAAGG

| residues | test_system | PBM binding z-score |
| --- | --- | --- |
| CTATGTAGGTTAAGTGGGTCATTCAGTTTGAAAG | PPARg:RXRa 90nM:30nM, anti-RXR (NR concentration 90 nM, RXRa partner concentration 30 nM) | 4.9 |
| TCGAGTAGGTTACGGGGGCATTGAGGGATGAAGA | PPARg:RXRa 90nM:30nM, anti-RXR (NR concentration 90 nM, RXRa partner concentration 30 nM) | 5.05 |
| GCTGCTAGGTCAACTGATGGTCAGCTAAAGCTCG | PPARg:RXRa 90nM:30nM, anti-RXR (NR concentration 90 nM, RXRa partner concentration 30 nM) | 2.08 |
| CGAACTGGGTCAAAGGACAGTGAAAGGCGACGTA | PPARg:RXRa 90nM:30nM, anti-RXR (NR concentration 90 nM, RXRa partner concentration 30 nM) | 9.33 |
| CCGAGTAGGTTACGAGGGGGCATACAGTGCGAAT | PPARg:RXRa 90nM:30nM, anti-RXR (NR concentration 90 nM, RXRa partner concentration 30 nM) | 2.54 |
| CCTGCTAGGTCTATGGTCAGCTAAAGCAGCTCGC | PPARg:RXRa 90nM:30nM, anti-RXR (NR concentration 90 nM, RXRa partner concentration 30 nM) | -0.432 |
| CGAACTCGGTCACCAGGACAGTGAAGAGGTTGGA | PPARg:RXRa 90nM:30nM, anti-RXR (NR concentration 90 nM, RXRa partner concentration 30 nM) | 0.606 |
| TCGAGTAGGTTCCGGGGGCATTCAGGGATGAAGA | PPARg:RXRa 90nM:30nM, anti-RXR (NR concentration 90 nM, RXRa partner concentration 30 nM) | 2.24 |
| CCTCGGAGGACAGAAGGTCAGATCTGTCCGCTTT | PPARg:RXRa 90nM:30nM, anti-RXR (NR concentration 90 nM, RXRa partner concentration 30 nM) | 0.0725 |
| CGAACTAGGTCATCGAGGACAGTGAATACATTGA | PPARg:RXRa 90nM:30nM, anti-RXR (NR concentration 90 nM, RXRa partner concentration 30 nM) | 6.2 |
| CCTTGCGGGTCACTGACAGGTTATAGCATTTGGA | PPARg:RXRa 90nM:30nM, anti-RXR (NR concentration 90 nM, RXRa partner concentration 30 nM) | 3.47 |
| ATATGTAGGTTAGGGTCAATCAGAAAGTAGGGAA | PPARg:RXRa 90nM:30nM, anti-RXR (NR concentration 90 nM, RXRa partner concentration 30 nM) | 5.93 |
| ATATGTAGGTTATGGTCATTCAGAAAGTAGGGAA | PPARg:RXRa 90nM:30nM, anti-RXR (NR concentration 90 nM, RXRa partner concentration 30 nM) | 3.32 |
| CCGAGTAGGTTACGAGGGGGGATTCAGTGCGAAT | PPARg:RXRa 90nM:30nM, anti-RXR (NR concentration 90 nM, RXRa partner concentration 30 nM) | 3.4 |
| CCTGCTAGGTCAATGGTCAGCTCAAGCAGCTCGC | PPARg:RXRa 90nM:30nM, anti-RXR (NR concentration 90 nM, RXRa partner concentration 30 nM) | 5.14 |
| TATACAGGGTCAAAGGGCAGAGTACGAATGTCGA | PPARg:RXRa 90nM:30nM, anti-RXR (NR concentration 90 nM, RXRa partner concentration 30 nM) | 8.56 |
| CGAACTAGGTCAAAAGACAGTGAAAGGCGACGTA | PPARg:RXRa 90nM:30nM, anti-RXR (NR concentration 90 nM, RXRa partner concentration 30 nM) | 7.26 |
| CCTACTGGGCCATACAGAGGTCATTGATCATATG | PPARg:RXRa 90nM:30nM, anti-RXR (NR concentration 90 nM, RXRa partner concentration 30 nM) | 2.85 |
| ATATGTAGGTTACATCGGGGTCATTCAGGCTATG | PPARg:RXRa 90nM:30nM, anti-RXR (NR concentration 90 nM, RXRa partner concentration 30 nM) | 5.65 |
| CAAAGTAGGTCAAGAGGTCAAAGTCCGCTTCCCG | PPARg:RXRa 90nM:30nM, anti-RXR (NR concentration 90 nM, RXRa partner concentration 30 nM) | 9.17 |
| TCGAGTAGGTTACGGGGGCATTCACGGATGAAGA | PPARg:RXRa 90nM:30nM, anti-RXR (NR concentration 90 nM, RXRa partner concentration 30 nM) | 5.06 |
| CGTCCAAGGTCAATTCTAGGTCAGTGAAAGCATT | PPARg:RXRa 90nM:30nM, anti-RXR (NR concentration 90 nM, RXRa partner concentration 30 nM) | 3.25 |
| ATCAAAAGGTCGAAGGTGAGTATACCCACCCGAA | PPARg:RXRa 90nM:30nM, anti-RXR (NR concentration 90 nM, RXRa partner concentration 30 nM) | 4.75 |
| CGAACTAGGTCAAAGGACAGTGAAAGGCGACGTA | PPARg:RXRa 90nM:30nM, anti-RXR (NR concentration 90 nM, RXRa partner concentration 30 nM) | 9.66 |
| TCTCGGAGGACACGAAAGGGCAGAGCTCGACATC | PPARg:RXRa 90nM:30nM, anti-RXR (NR concentration 90 nM, RXRa partner concentration 30 nM) | 1.2 |
| TAGCCTAGGCCATGGGCCAGTATACCACGCGAAC | PPARg:RXRa 90nM:30nM, anti-RXR (NR concentration 90 nM, RXRa partner concentration 30 nM) | -0.67 |
| AGTCAAAGTTCTTCTAGGTAACGTAAGATATGCT | PPARg:RXRa 90nM:30nM, anti-RXR (NR concentration 90 nM, RXRa partner concentration 30 nM) | 0.549 |
| TCTAGTAGGTTACGGGGGCATTCAGGGATGAAGA | PPARg:RXRa 90nM:30nM, anti-RXR (NR concentration 90 nM, RXRa partner concentration 30 nM) | 6.87 |
| TCGAGTAGGTAACGGGGGCATTCAGGGATGAAGA | PPARg:RXRa 90nM:30nM, anti-RXR (NR concentration 90 nM, RXRa partner concentration 30 nM) | 3.8 |
| GGAACGAGCGCAAAGTTGATAGCATCTGTCGACG | PPARg:RXRa 90nM:30nM, anti-RXR (NR concentration 90 nM, RXRa partner concentration 30 nM) | 2.9 |
| GCTTACGGGTGAAAGGTTATAGCATGAATAGAAT | PPARg:RXRa 90nM:30nM, anti-RXR (NR concentration 90 nM, RXRa partner concentration 30 nM) | 8.71 |
| ATATGTAGGCTAGGGTCATTCAGAAAGTAGGGAA | PPARg:RXRa 90nM:30nM, anti-RXR (NR concentration 90 nM, RXRa partner concentration 30 nM) | 4.24 |
| CGTCCAAGGTCAATGCTAGCTCAGTGAAAGCATT | PPARg:RXRa 90nM:30nM, anti-RXR (NR concentration 90 nM, RXRa partner concentration 30 nM) | 2.62 |
| CCTACTGGGCCATTCAGAGGACATTGATCATATG | PPARg:RXRa 90nM:30nM, anti-RXR (NR concentration 90 nM, RXRa partner concentration 30 nM) | -0.17 |
| CGAACTAGGTCACAAGGACAGTGAAGAGGTTGGA | PPARg:RXRa 90nM:30nM, anti-RXR (NR concentration 90 nM, RXRa partner concentration 30 nM) | 6.82 |
| CTTACTGGGCCAAAGGTCATTGATTCCAATGCTC | PPARg:RXRa 90nM:30nM, anti-RXR (NR concentration 90 nM, RXRa partner concentration 30 nM) | 13.6 |
| ATATGTAGGATAGGGTCATTCAGAAAGTAGGGAA | PPARg:RXRa 90nM:30nM, anti-RXR (NR concentration 90 nM, RXRa partner concentration 30 nM) | 3.29 |
| ACTCGGAGGACAAATGTCAGAGCTACGCCAGTGA | PPARg:RXRa 90nM:30nM, anti-RXR (NR concentration 90 nM, RXRa partner concentration 30 nM) | 1.36 |
| CCGAGTAGGTTACGAGGGGGCCTTCAGTGCGAAT | PPARg:RXRa 90nM:30nM, anti-RXR (NR concentration 90 nM, RXRa partner concentration 30 nM) | 1.8 |

Reference for the values: the supplement of paper PMC6555819
